TARGET SYSTEM: CFTR (Homo sapiens, UniProt P13569)
Construct: endogenous in cells; host or cells: T84 human colonic cells (ECACC)
Sequence (P13569 whole entry): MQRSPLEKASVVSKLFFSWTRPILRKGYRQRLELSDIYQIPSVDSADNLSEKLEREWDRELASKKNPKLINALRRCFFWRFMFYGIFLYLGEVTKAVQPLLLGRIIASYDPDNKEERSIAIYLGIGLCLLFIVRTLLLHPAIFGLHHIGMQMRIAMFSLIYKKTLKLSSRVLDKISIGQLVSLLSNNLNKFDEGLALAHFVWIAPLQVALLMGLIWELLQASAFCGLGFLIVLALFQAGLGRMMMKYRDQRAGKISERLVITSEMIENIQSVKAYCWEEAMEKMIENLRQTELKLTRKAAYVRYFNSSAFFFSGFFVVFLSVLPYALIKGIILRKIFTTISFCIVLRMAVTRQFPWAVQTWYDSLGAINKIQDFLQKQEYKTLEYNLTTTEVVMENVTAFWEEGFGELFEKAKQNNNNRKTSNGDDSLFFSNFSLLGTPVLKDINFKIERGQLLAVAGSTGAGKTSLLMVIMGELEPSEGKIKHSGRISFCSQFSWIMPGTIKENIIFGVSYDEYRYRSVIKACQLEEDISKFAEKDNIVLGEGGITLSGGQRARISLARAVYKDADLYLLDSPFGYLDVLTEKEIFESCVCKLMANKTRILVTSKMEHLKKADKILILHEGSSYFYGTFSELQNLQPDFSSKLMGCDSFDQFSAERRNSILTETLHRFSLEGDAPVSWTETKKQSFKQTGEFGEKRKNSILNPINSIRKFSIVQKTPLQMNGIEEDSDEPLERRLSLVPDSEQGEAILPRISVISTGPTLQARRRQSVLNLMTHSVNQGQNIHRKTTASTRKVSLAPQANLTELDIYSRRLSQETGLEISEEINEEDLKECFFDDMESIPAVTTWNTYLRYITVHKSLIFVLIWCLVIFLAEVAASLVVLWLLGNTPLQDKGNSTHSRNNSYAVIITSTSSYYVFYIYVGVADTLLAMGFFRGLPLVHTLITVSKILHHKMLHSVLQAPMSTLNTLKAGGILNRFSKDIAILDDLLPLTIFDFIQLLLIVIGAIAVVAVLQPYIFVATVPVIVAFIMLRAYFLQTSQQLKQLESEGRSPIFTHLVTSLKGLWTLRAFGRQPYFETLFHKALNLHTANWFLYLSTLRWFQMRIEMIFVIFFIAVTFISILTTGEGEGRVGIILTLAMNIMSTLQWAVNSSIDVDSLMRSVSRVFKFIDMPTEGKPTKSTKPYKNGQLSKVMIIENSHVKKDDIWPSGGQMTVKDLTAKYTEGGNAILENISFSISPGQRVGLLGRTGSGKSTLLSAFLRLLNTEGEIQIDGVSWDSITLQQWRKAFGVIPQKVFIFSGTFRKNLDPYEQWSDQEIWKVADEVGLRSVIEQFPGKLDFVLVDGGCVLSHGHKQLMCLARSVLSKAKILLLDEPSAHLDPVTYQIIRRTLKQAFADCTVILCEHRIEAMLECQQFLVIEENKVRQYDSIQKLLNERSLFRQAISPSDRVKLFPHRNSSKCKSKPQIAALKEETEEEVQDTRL
ASSAY METHOD TEXT: T84 assay (FLIPR membrane potential dye, forskolin/IBMX-stimulated CFTR channel activity)
Assay type: cell-based
CONDITIONS USED: isoxazole-containing compounds (Table 10, 10′, 11, 11′), read-out: IC50
ASSAY ENDPOINT: IC50 (µM)
Return type: number; implicit unit µM.

Worked cases, answers included:
{"MOLECULE": "O=C(c1cc(-c2cc(Cl)c(O)c(Cl)c2)on1)N1CCC(Cc2ccccc2)CC1 [12g]", "IC50 / µM": 6.51}
{"MOLECULE": "CN(Cc1ccc(C(F)(F)F)cc1)C(=O)c1cc(-c2cc(Br)c(O)c(Br)c2)on1", "IC50 / µM": 6.96}

From here, focus on the item given below.
Qu. Report IC50 for `O=C(c1cc(-c2cc(Br)c(O)c(Br)c2)on1)N1CCC(Cc2ccccc2)CC1` please.
Ans. 8.96

====

TARGET SYSTEM: CFTR (Homo sapiens)
Construct: endogenous in cells; host or cells: T84 human colonic cells (ECACC)
ASSAY METHOD TEXT: T84 assay (FLIPR membrane potential dye, forskolin/IBMX-stimulated CFTR channel activity)
Type: cell-based
CONDITIONS USED: imidazole and triazole-containing compounds (Tables 13, 14, 14′), read-out: IC50 (μM) (T84 assay)
List of IC50 values.
Write the answer as a number in µM, unit excluded.

{"MOLECULE": "CCN(Cc1ccc(C(C)C)cc1)C(=O)c1ncn(-c2cc(Cl)c(O)c(Cl)c2)n1 [87i]", "TARGET SYSTEM": "CFTR (Homo sapiens)", "IC50 (µM)": 1.23}

Qu. For the molecule O=C(NCc1ccc(N2CCCCC2)cc1)c1ncn(-c2cc(Cl)c(O)c(Cl)c2)n1 [45i] , what IC50 is on record?
Ans. 8.22

====

TARGET SYSTEM: CFTR (Homo sapiens, UniProt P13569)
Construct: endogenous in cells; host or cells: T84 human colonic cells (ECACC)
ASSAY METHOD TEXT: T84 assay (FLIPR membrane potential dye, forskolin/IBMX-stimulated CFTR channel activity)
Format: cell-based
CONDITIONS USED: imidazole and triazole-containing compounds (Tables 13, 14, 14′), read-out: IC50 (μM) (T84 assay)
// classify: if (IC50 < 20 µM) yes (1) else no (0)

Below are worked cases with known answers.
{"COMPOUND": "Oc1c(Cl)cc(-n2cnc(C(O)(c3cccc(Cl)c3)c3cccc(Cl)c3)n2)cc1Cl [53i]", "ASSIGNED CATEGORY": "yes (1)"}
{"COMPOUND": "CC(C)(C)CCN(Cc1ccc(Oc2ccccc2)cc1)C(=O)c1ncn(-c2cc(Cl)c(O)c(Cl)c2)n1 [105i]", "ASSIGNED CATEGORY": "yes (1)"}

Qu. # strict comparison: is reported IC50 < 20 µM? input = Oc1c(Cl)cc(-n2cnc(C(O)(c3cccc(F)c3)c3cccc(F)c3)n2)cc1Cl [54i]
Ans. no (0)

Qu. Strictly below 20 µM in IC50? O=C(NCc1cc(Cl)ccc1F)c1ncn(-c2cc(Cl)c(O)c(Cl)c2)n1 [27i]
Ans. no (0)

Qu. Say whether its IC50 is strictly beneath 20 µM. Entry: O=C(NCc1ccccc1OC(F)F)c1ncn(-c2cc(Cl)c(O)c(Cl)c2)n1 [41i]
Ans. no (0)
